For each record, write down the corresponding Phage binding ELISA, Anti-PSMA Fab (SEQ ID NOs: 19, 20) signal.
# ASSAYED TARGET: T1, Anti-PSMA Fab (SEQ ID NOs: 19, 20)
# T1 construct: also called 006 PSMA Fab
# MEASUREMENT DESCRIPTION: phage ELISA; biotinylated PSMA Fab on neutravidin plate, clonal phage supernatant, anti-M13-HRP detection;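 further: wells were preincubated with blocking buffer containing PSMA antigen or with blocking buffer only, then phage supernatant was added without washing for a brief incubation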

Briefly, Phage binding ELISA, Anti-PSMA Fab (SEQ ID NOs: 19, 20) signal measured for MVNWCTPPWMCWGF [Phage-2145] : 1.69

Briefly, Phage binding ELISA, Anti-PSMA Fab (SEQ ID NOs: 19, 20) signal measured for EGKWCIPEWMCSAS [Phage-2134] : 1.7

Briefly, Phage binding ELISA, Anti-PSMA Fab (SEQ ID NOs: 19, 20) signal measured for SAPWCIPEWMCFSL [Phage-2146] : 1.69

Briefly, Phage binding ELISA, Anti-PSMA Fab (SEQ ID NOs: 19, 20) signal measured for LEKWCTPSWMCIGI [Phage-2139] : 1.7

Briefly, Phage binding ELISA, Anti-PSMA Fab (SEQ ID NOs: 19, 20) signal measured for VYKWCTPPWMCTQM [Phage-2136] : 1.7

Briefly, Phage binding ELISA, Anti-PSMA Fab (SEQ ID NOs: 19, 20) signal measured for VQKWCIPEWMCAVA [Phage-2138] : 1.7

Briefly, Phage binding ELISA, Anti-PSMA Fab (SEQ ID NOs: 19, 20) signal measured for IPKWCTPVWMCEGM [Phage-2142] : 1.69

Briefly, Phage binding ELISA, Anti-PSMA Fab (SEQ ID NOs: 19, 20) signal measured for EHKWCIPSWMCADM [Phage-2140] : 1.69

Briefly, Phage binding ELISA, Anti-PSMA Fab (SEQ ID NOs: 19, 20) signal measured for VWHWCTPPWMCNAE [Phage-2143] : 1.69

Sourced from patent US20260242478A1
